Source listed as patent US8541473B2.

# Test system: larvae of Plutella xylostella
# experiment: Insecticidal effect on larvae of Plutella xylostella (spray on potted Chinese cabbage)
# Assay type: in vivo
# particulars: 5 ppm; 5 days after release of larvae; agonized larvae regarded as killed
Provide the reported rate of killed insects (larvae) of each item.
Param answer (str): number followed by unit.

Entry Cc1cc(C(F)(C(F)(F)F)C(F)(F)F)cc(C)c1NC(=O)c1cccc(NC(=O)C(=O)NCCCl)c1 : reported rate of killed insects (larvae) = ?
100%

Form field: reported rate of killed insects (larvae) of CCc1cc(C(F)(C(F)(F)F)C(F)(F)F)cc(C)c1NC(=O)c1cccc(NC(=O)C(=O)N(C)C(C)(C)C)c1
100%

Tell me the measured rate of killed insects (larvae) of CCc1cc(C(F)(C(F)(F)F)C(F)(F)F)cc(CC)c1NC(=O)c1cccc(NC(=O)C(=O)N(C)CC)c1 , please.
100%

Looking for the measured rate of killed insects (larvae) of Cc1cc(C(F)(C(F)(F)F)C(F)(F)F)cc(C)c1NC(=O)c1cccc(NC(=O)C(=O)N(C)C(C)(C)C)c1 , can you help?
100%
